Overview of reported Kd across a group of compounds:
# systemUnderTest: megalin M2 fragment (Homo sapiens, UniProt P02774+P98164)
# Construct: megalin signal peptide (M1-G25) (N, cleaved yes)
# Sequence (P98164 1024-1429 limits assumed, one chain of several): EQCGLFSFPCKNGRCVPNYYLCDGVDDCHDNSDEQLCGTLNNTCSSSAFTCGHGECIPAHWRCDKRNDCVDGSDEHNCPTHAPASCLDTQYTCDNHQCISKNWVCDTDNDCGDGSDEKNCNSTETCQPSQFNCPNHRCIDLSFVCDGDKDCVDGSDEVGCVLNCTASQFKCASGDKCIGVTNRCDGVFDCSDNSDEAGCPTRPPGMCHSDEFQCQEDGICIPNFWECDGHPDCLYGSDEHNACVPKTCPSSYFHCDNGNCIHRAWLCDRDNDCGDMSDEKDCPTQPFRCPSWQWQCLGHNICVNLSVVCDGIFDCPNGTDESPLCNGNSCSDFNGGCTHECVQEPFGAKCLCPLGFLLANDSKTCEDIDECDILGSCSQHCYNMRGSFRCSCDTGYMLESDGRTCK
# procedureText: Microscale thermophoresis of DBP:VD-metabolite bound by megalin M2 fragment
# reportedConditions: labelled DBP 50 nM mixed with metabolite 37.8 nM; M2 titrated; read-out: dissociation constant Kd, megalin M2 fragment to complex DBP:vitamin D metabolite
Write the number in nM without appending the unit.

Record excerpt, results attached:
C=C1CC[C@H](O)C/C1=C/C=C1\CCC[C@]2(C)[C@@H]([C@H](C)/C=C/[C@H](C)C(C)(C)O)CC[C@@H]12 [25(OH)VD2, 25-hydroxyvitamin D2] :: 160
C=C1CC[C@H](O)C/C1=C/C=C1\CCC[C@]2(C)[C@@H]([C@H](C)CCC(O)C(C)(C)O)CC[C@@H]12 (stereo partly drawn) [24,25(OH)VD, 24,25-dihydroxyvitamin D] :: 171

Lookup: Record lookup: for megalin M2 fragment (Homo sapiens, UniProt P02774+P98164), what Kd belongs to C=C1CC[C@H](O)C/C1=C/C=C1\CCC[C@]2(C)[C@@H]([C@H](C)CCCC(C)(C)O)CC[C@@H]12 [25(OH)VD3, 25-hydroxyvitamin D3] ?
Found: 33.7

----------
# systemUnderTest: DBP (Homo sapiens, UniProt P02774)
# Sequence (P02774 17-474): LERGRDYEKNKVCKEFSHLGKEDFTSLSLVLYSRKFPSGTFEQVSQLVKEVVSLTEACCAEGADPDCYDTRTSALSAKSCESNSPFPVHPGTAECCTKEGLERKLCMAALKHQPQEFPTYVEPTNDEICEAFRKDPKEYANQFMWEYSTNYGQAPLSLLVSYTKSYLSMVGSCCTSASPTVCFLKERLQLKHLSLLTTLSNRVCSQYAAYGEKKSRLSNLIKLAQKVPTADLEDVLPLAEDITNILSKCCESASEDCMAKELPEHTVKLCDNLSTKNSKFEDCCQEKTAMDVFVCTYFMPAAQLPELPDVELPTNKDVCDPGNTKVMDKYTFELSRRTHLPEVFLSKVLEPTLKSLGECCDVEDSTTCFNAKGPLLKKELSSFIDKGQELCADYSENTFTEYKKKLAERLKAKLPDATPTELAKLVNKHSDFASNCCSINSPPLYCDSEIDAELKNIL
Property: pKd; scope: individual compounds
Value format note: pKd is -log10 of concentration (mol/L); just state the number.

C=C1CC[C@H](O)C/C1=C/C=C1\CCC[C@]2(C)[C@@H]([C@H](C)/C=C/[C@H](C)C(C)(C)O)CC[C@@H]12 [25(OH)VD2, 25-hydroxyvitamin D2] :: 8.55

Lookup: Recorded pKd for C=C1CC[C@H](O)C/C1=C/C=C1\CCC[C@]2(C)[C@@H]([C@H](C)CCCC(C)(C)O)CC[C@@H]12 [25(OH)VD3, 25-hydroxyvitamin D3] , please?
Found: 8.73
